test: self-splicing fitness, log relative to wild type (ln ratio); higher = more splicing; Tetrahymena group I intron in knt gene, E. coli kanamycin selection, DiMSum; sequences stand for … in CUCUCU…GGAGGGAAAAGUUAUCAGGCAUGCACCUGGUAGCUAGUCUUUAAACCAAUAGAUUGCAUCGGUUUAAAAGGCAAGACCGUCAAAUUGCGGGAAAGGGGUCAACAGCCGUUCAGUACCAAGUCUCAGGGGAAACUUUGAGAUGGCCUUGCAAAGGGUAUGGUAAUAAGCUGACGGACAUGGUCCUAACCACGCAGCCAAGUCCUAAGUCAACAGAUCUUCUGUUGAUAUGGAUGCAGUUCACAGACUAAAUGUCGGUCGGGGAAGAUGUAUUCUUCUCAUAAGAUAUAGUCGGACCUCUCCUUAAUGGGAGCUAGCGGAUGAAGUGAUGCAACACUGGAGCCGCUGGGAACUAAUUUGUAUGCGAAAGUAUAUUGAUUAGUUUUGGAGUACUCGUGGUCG; conditions: 30 °C;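 note: selection with 25 µg/mL kanamycin versus none on LB agar overnight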
Endpoint: self-splicing fitness (ln)

1. AGUCAGCAAUAUUACGGAUC -0.312
2. UACAAGCAAUAUUACGUGGU -3.29
3. UGCUAGCAAUAUUACGGUCU -0.539
4. UAAGAGCAAUAUUACGACCU -1.34
5. AUUUAGCAAUAUUACGAUUC -1.73
6. UGGUAGCAAUAUUACGAUCC -0.523
7. AGCAAGCAAUAUUACGAUGG -2.63
8. UAAGAGCAAUAUUACGGCCA -1.81
9. CCGCAGCAAUAUUACGGUGG -3.11
10. UGACAGCAAUAUUACGUGAC -2.64
11. CAAUAGCAAUAUUACGUUUG -2.52
12. GCUCAGCAAUAUUACGUAAG -0.791
13. ACGAAGCAAUAUUACGCGUA -1.27
14. ACACAGCAAUAUUACGGUAU -2.59
15. UUAAAGCAAUAUUACGCAGA -0.209
16. GCAUAGCAAUAUUACGUCUA -0.451
17. CCACAGCAAUAUUACGGCUG -3.26
18. GGUCAGCAAUAUUACGGCAA 0.415
19. CUAGAGCAAUAUUACGCAUA -2.97
20. UUUGAGCAAUAUUACGUCAU -3.88
21. ACCCAGCAAUAUUACGGCGG -2.11
22. CUGUAGCAAUAUUACGGGUU -3.94
23. CGGUAGCAAUAUUACGAACG -1.54
24. AGCGAGCAAUAUUACGACUA -0.953
25. AGGUAGCAAUAUUACGUACG -1.19
26. GACAAGCAAUAUUACGCCAG -3.1
27. UUGUAGCAAUAUUACGGCCA -0.782
28. UUCUAGCAAUAUUACGAACG -3.61
29. UACUAGCAAUAUUACGGCUA -1.58
30. AAACAGCAAUAUUACGGAUC -2.82
31. UUACAGCAAUAUUACGAGUU -4.21
32. CAAUAGCAAUAUUACGAUUU -2.3
33. CGAUAGCAAUAUUACGCCCC -1.99
34. CUUCAGCAAUAUUACGAAUG -0.722
35. GGCCAGCAAUAUUACGUGCA -0.734
36. UGUUAGCAAUAUUACGUCUA -0.124
37. GGGUAGCAAUAUUACGAACG -0.91
38. AGAUAGCAAUAUUACGAGGG -3.73
39. CUGCAGCAAUAUUACGUUGG -2.82
40. GCCCAGCAAUAUUACGAGCC -3.1
41. UAUGAGCAAUAUUACGGGAU -3.06
42. ACGGAGCAAUAUUACGUCGG -3.04
43. CCCCAGCAAUAUUACGCAUU -4.14
44. AAGAAGCAAUAUUACGUUGU -3.2
45. CUCGAGCAAUAUUACGGACA -2.98
46. GGUGAGCAAUAUUACGAACG -0.652
47. GAGAAGCAAUAUUACGCGGA -2.51
48. ACCCAGCAAUAUUACGGUGA -0.516
49. CACCAGCAAUAUUACGUUCG -0.281
50. GGUGAGCAAUAUUACGUCGU -2.57
51. GCCAAGCAAUAUUACGGAAG -3.55
52. CAGUAGCAAUAUUACGCGGG -3.1
53. GUUUAGCAAUAUUACGCGUC -1.79
54. AACCAGCAAUAUUACGUGAG -0.744
55. CAAGAGCAAUAUUACGACUG -1.57
56. UCCGAGCAAUAUUACGAUGA -0.4
57. CGUCAGCAAUAUUACGUACG -3.6
58. UGGGAGCAAUAUUACGGGAU -3.11
59. UAGUAGCAAUAUUACGUUAU -3.5
60. CACCAGCAAUAUUACGAUUU -3.36
61. CUCAAGCAAUAUUACGUAGA -3.23
62. AGAUAGCAAUAUUACGUAGA -3.03
63. UAAAAGCAAUAUUACGAUUU -1.36
64. UUCUAGCAAUAUUACGCAGA -2.04
65. AUCUAGCAAUAUUACGAGAC -4.67
66. CAGUAGCAAUAUUACGAGUU -3.52
67. AGUGAGCAAUAUUACGACCA -1.79

Source: the supplement of paper PMC7877785
